# measurementTarget: HiBit-BRM fusion protein (Homo sapiens)
# Construct: expressed in transfected cells
# Sequence (P51531 whole entry, the tested form may be a part): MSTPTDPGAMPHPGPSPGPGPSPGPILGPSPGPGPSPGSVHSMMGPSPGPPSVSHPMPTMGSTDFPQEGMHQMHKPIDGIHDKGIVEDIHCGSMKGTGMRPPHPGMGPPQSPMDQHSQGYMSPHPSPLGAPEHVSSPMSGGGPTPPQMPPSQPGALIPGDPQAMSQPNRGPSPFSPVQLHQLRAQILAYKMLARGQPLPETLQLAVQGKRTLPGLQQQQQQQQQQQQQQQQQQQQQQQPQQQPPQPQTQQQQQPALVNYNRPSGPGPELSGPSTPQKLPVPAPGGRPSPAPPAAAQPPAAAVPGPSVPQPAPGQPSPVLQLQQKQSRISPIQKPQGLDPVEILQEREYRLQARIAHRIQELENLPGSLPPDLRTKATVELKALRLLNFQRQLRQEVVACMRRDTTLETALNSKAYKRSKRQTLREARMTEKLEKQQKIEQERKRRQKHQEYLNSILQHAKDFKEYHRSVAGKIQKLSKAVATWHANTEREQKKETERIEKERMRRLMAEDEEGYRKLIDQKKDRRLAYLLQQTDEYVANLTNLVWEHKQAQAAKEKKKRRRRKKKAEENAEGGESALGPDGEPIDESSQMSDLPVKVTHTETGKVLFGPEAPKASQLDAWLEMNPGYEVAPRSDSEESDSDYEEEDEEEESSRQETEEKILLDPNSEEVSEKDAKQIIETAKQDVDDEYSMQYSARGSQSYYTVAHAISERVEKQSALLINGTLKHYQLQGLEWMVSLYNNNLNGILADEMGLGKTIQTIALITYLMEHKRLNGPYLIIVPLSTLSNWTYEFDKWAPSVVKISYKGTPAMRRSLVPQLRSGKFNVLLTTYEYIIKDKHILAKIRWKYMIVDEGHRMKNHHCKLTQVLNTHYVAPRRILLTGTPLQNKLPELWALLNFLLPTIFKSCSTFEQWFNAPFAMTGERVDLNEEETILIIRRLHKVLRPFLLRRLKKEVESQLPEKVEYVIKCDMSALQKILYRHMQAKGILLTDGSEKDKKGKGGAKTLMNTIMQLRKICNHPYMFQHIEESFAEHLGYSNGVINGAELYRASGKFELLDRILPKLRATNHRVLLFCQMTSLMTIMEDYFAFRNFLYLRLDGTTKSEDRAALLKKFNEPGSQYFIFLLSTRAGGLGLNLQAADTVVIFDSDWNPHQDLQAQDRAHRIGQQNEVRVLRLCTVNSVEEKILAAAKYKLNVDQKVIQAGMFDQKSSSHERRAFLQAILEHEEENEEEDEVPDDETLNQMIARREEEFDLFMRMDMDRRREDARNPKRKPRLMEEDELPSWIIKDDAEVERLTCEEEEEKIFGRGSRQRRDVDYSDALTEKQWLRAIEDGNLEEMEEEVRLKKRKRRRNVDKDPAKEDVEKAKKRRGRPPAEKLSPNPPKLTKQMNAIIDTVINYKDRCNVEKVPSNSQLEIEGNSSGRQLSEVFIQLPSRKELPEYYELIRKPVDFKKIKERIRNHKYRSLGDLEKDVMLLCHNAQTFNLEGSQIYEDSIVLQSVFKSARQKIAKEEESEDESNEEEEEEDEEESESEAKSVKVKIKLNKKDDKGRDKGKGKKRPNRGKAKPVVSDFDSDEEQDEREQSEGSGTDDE
# protocolDetails: HiBiT-BRM cell-based degradation assay (Nano-Glo HiBiT Lytic Detection, 24 h)
# assaySetup: HeLa cells expressing HiBiT-BRM, read-out: BRM HiBit Degradation IC50

compound: CS(=O)(=O)n1ccc(C(=O)NCC(=O)Nc2nc(-c3cccc(-c4ccnc(N5CCN(C(=O)CCOCCOCCOc6ccc7c(c6)C(=O)N(C6CCC(=O)NC6=O)C7=O)CC5)c4)c3)cs2)c1 (stereo not drawn)
DC50: 0.1 to 1 µM
--
compound: CS(=O)(=O)n1ccc(C(=O)NCC(=O)Nc2nc(-c3cccc(-c4cccc(CNC(=O)CCCCCCCCNc5cccc6c5C(=O)N(C5CCC(=O)NC5=O)C6=O)c4)c3)cs2)c1 (stereo not drawn)
DC50: > 10 µM
--
compound: CC(C)(C(=O)N1CCC(C2CCN(C(=O)COc3cccc4c3C(=O)N(C3CCC(=O)NC3=O)C4=O)CC2)CC1)n1ccc(-c2cccc(-c3csc(NC(=O)CNC(=O)c4ccn(S(C)(=O)=O)c4)n3)c2)n1 (stereo not drawn)
DC50: > 10 µM

Data origin: patent US12662479B2
